For each entry below, report its hAM1R EC50 (cAMP) value.
Biological target: hAM1R (human, UniProt Q16602)
Experiment: cell-based or functional assay
Bridge positions count the residues as written; N and C are the ends. Square brackets hold non-standard residues; d marks the D form. Ends that are not written are not given here. Hyp = O=C(O)[C@@H]1C[C@@H](O)CN1; Cit = NC(=O)NCCC[C@H](N)C(=O)O

- binder: "GCRFGTCTVQRLAHQIYQFTDKFKDNVAPRSKISPQT[Hyp]-NH2 (disulfide 2-7 (inferred); ends not checked) [SEQ ID NO: 212]"
  hAM1R EC50 (cAMP): "> 5 µM"
- binder: "GCRFGTCTVQRLAHQIYQFTDKDKDNVAPRSNVGPNGY [SEQ ID NO: 373]"
  hAM1R EC50 (cAMP): "0.00771 µM"
- binder: "KCNTATCATQRLANFLVHSSNNFGAILPSTKVGPNGY [SEQ ID NO: 149]"
  hAM1R EC50 (cAMP): "> 5 µM"
- binder: "GCRFGTCTVQ[Cit]LAHQIYQFTDKDKDNVAPRTNVSPQG[Hyp]-NH2 (disulfide 2-7 (inferred); ends not checked) [SEQ ID NO: 283]"
  hAM1R EC50 (cAMP): "> 5 µM"

// next item, hAM1R EC50 (cAMP) requested
In: For GCRFGTCTVQRLAHQLYQFTDKDKDNVAPRSKISPQT[Hyp]-NH2 (disulfide 2-7 (inferred); ends not checked) [SEQ ID NO: 217] , write its hAM1R EC50 (cAMP).
Out: > 5 µM
